# Tested on: Mus musculus
# EXPERIMENT: Fasting plasma glucose levels after 30 mg/kg peroral administration in db/db Mouse
# Assay type: functional
# ASSAY_CONTEXT: route oral
Record form. Attribute: FPG correction. Fill in for each entry.
Numbers only, in %.

{"MOLECULE": "CCCc1cc2c(C(F)(F)F)noc2c(CCC)c1OC(C(=O)O)c1ccccc1 (centres undefined)", "ENDPOINT_VALUE": 91}
{"MOLECULE": "CCCc1cc(C(=O)CC)c(O)c(CCC)c1OC(C(=O)O)c1ccccc1 (centres undefined)", "ENDPOINT_VALUE": 55}
{"MOLECULE": "Cc1cccc(Nc2cc(Cl)nc(SCC(=O)O)n2)c1C", "ENDPOINT_VALUE": 20}

Next:
Q: Hi! What's the reported FPG correction for CCCc1c(OC(C(=O)O)c2ccccc2)ccc2c(C(F)(F)F)noc12 (centres undefined) on Mus musculus?
Result: -5

---

# EXPERIMENT: Bioavailability was determined in rat
# Format: ADME, organism-based
# ASSAY_CONTEXT: in vivo
READOUT_NAME: bioavailability (%)
One number for each entry, in %.

Q: Data request, read-out bioavailability, for CCCc1cc2c(C(F)(F)F)noc2c(CCC)c1OC(C(=O)O)c1ccccc1 (stereo unspecified)
Result: 11

---

# log10 of Ki measurements, system: Peroxisome proliferator-activated receptor alpha (Homo sapiens, UniProt Q07869)
# Sequence (Q07869 whole entry): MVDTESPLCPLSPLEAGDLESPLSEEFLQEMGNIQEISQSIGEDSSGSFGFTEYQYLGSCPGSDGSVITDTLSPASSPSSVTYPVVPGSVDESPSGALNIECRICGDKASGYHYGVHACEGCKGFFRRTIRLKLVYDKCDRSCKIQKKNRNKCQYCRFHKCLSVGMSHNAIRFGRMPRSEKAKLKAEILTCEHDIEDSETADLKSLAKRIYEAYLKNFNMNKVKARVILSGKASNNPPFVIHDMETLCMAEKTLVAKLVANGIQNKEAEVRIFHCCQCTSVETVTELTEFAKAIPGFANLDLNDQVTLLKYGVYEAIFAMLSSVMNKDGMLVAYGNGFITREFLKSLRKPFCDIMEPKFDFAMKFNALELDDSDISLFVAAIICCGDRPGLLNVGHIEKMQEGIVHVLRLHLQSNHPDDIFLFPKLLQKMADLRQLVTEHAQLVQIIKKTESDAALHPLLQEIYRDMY
Lab note - Ki converted to log10 from values in µM.

Consider the following illustrative entries.
{"COMPOUND": "CCCc1cc2c(CC)noc2c(CCC)c1OC(C(=O)O)c1ccccc1 (stereo not given)", "TESTED_TARGET": "Peroxisome proliferator-activated receptor alpha (Homo sapiens, UniProt Q07869)", "log10 of Ki": -1.21}
{"COMPOUND": "CCCc1cc2c(C(F)(F)F)noc2c(CCC)c1OC(C(=O)O)c1ccccc1 (stereo not given)", "TESTED_TARGET": "Peroxisome proliferator-activated receptor alpha (Homo sapiens, UniProt Q07869)", "log10 of Ki": -1.43}
{"COMPOUND": "CCCc1cc2c(C(F)(F)F)noc2c(CCC)c1OC(C(=O)O)c1ccc(Cl)cc1 (stereo not given)", "TESTED_TARGET": "Peroxisome proliferator-activated receptor alpha (Homo sapiens, UniProt Q07869)", "log10 of Ki": -0.98}

Provide each entry's log10 of Ki from the list below.
1. CCCc1cc2c(C(F)(F)F)noc2c(CCC)c1OC(C(=O)O)c1ccc(CCc2ccccn2)cc1 (stereo not given)
2. CCCc1c(OC(C(=O)O)c2ccccc2)c(Cl)cc2c(CC)noc12 (stereo not given)
3. CCCc1cc2c(C(F)(F)F)noc2c(CCC)c1OC(C(=O)O)c1ccc(C(F)(F)F)cc1 (stereo not given)
4. CCCc1cc(C(=O)OC)cc(Cl)c1OC(C(=O)O)c1ccccc1 (stereo not given)
5. CC(C)(Oc1ccc(C(=O)c2ccc(Cl)cc2)cc1)C(=O)O
6. COC(=O)c1cc(C)c(OC(C(=O)O)c2ccccc2)c(C)c1 (stereo not given)
7. CCCc1c(OC(C(=O)O)c2ccccc2)ccc2c(C(F)(F)F)noc12 (stereo not given)

Result:
[-1.19, -1.42, -1.74, -1.24, 1.54, -0.65, -1.01]

---

Record form. Attribute: FPG correction. Fill in for each entry.
# System: Mus musculus
# EXPERIMENT: Fasting plasma glucose level after 10 mg/kg peroral administration in db/db Mouse
# Type: functional
# ASSAY_CONTEXT: route oral
One number for each entry, in %.

Consider the following illustrative entries.
{"MOLECULE": "CCCc1cc2c(C(F)(F)F)noc2c(CCC)c1OC(C(=O)O)c1ccc(C(F)(F)F)cc1 (stereo unspecified)", "ENDPOINT_VALUE": 83}
{"MOLECULE": "CCCc1cc2c(C(F)(F)F)noc2c(CCC)c1OC(C(=O)O)c1ccc(Cl)cc1 (stereo unspecified)", "ENDPOINT_VALUE": 74}
{"MOLECULE": "CCCc1cc(C(=O)CC)c(O)c(CCC)c1OC(C(=O)O)c1ccccc1 (stereo unspecified)", "ENDPOINT_VALUE": 42}
{"MOLECULE": "CCCc1cc2c(C(F)(F)F)noc2c(CCC)c1O[C@H](C(=O)O)c1ccccc1", "ENDPOINT_VALUE": 50}
{"MOLECULE": "CCCc1cc2c(C(F)(F)F)noc2c(CCC)c1OC(C(=O)O)c1ccc(CCc2ccccn2)cc1 (stereo unspecified)", "ENDPOINT_VALUE": 75}

Next:
Q: Data request, read-out FPG correction, for CCCc1cc2c(C(F)(F)F)noc2c(CCC)c1OC(C(=O)O)c1ccc(C(C)C)cc1 (stereo unspecified)
Result: 61
